B1: HDV Ribozyme (parent)
chain: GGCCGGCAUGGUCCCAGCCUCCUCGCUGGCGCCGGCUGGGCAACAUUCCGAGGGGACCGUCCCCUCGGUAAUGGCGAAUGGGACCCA

# Variants of: B1
# protocolSummary: self-cleavage, relative activity (ratio to wild type); higher = more cleavage; co-transcriptional
Response key: Condition met means self-cleavage >= 0.3; Condition not met means self-cleavage < 0.3.

Field: example entries. Status: answers known.
{"mutationKey": "U20A A42G", "class": "Condition not met"}
{"mutationKey": "G6U G17U", "class": "Condition not met"}
{"mutationKey": "G10U A70U", "class": "Condition met"}

Query: Record A43U A83U ; criterion: self-cleavage no lower than 0.3. Met?
Response: Condition not met

Query: Moving on to the next variant: C36A G54A
Response: Condition not met

Query: Moving on to the next variant: G6C U27G
Response: Condition not met

Query: Moving on to the next variant: C26U G35A
Response: Condition met

Query: Moving on to the next variant: U20G C86U
Response: Condition not met

Query: Moving on to the next variant: C30A A78G
Response: Condition met

Query: Moving on to the next variant: G31A G73U
Response: Condition not met

Query: Moving on to the next variant: C19U C21A
Response: Condition not met
